Recorded inhibition by entry
biological target: Beta-secretase 1 (Homo sapiens); assay: Inhibition of human recombinant BACE1; set-up: concentration or dose not given beside the values; settings: concentration not given here
Sequence (P56817 whole entry): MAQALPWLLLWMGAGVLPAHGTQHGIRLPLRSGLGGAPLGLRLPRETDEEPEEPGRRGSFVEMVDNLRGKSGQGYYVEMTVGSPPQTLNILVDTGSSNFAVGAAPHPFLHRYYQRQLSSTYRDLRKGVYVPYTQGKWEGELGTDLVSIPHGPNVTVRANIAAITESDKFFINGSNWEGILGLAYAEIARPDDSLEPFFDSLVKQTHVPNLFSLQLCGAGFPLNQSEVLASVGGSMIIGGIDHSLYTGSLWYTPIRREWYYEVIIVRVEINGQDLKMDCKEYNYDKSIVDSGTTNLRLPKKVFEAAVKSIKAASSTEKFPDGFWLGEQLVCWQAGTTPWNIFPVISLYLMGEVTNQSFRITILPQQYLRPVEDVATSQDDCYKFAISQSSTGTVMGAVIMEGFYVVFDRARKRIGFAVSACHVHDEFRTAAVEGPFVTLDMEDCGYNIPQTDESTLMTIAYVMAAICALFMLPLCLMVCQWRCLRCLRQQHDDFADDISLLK
Entry rule: numbers only, all in %.

- Mol Smiles: "Cc1ccc(NC(=O)CN2C(=O)/C(=N\\NC(=O)c3cc([N+](=O)[O-])ccc3O)c3ccccc32)cc1"
  inhibition (%): 84.5
- Mol Smiles: "Cc1ccc(NC(=O)CN2C(=O)/C(=N\\NC(=O)c3ccccc3O)c3ccccc32)cc1"
  inhibition (%): 71.1
- Mol Smiles: "O=C1Nc2ccccc2/C1=N/NC(=O)c1cc([N+](=O)[O-])ccc1O"
  inhibition (%): 35.2

We now examine a further compound.
-- ask Entry "COc1ccc([N+](=O)[O-])cc1C(=O)N/N=C1\C(=O)N(CC(=O)Nc2ccc(C)cc2)c2ccccc21" , system Beta-secretase 1 (Homo sapiens): what inhibition was measured?
-- reply 20.2
